All figures here come from patent US5164296A.

ASSAYED_SYSTEM: antibodies having binding specificity for ouabain
PROTOCOL_DESCRIPTION: Competition ELISA for binding to antibodies having binding specificity for ouabain
REPORTED_CONDITIONS: competition ELISA, antisera 1:2×10^6; read-out: calculated apparent Kd value
QUANTITY_MEASURED: Kd (nM)
One number for each entry, in nM.

The value of Kd measured for the compound CC1OC(OC2CC(O)C3(CO)C4C(O)CC5(C)C(C6=CC(=O)OC6)CCC5(O)C4CCC3(O)C2)C(O)C(O)C1O (stereo not shown) turned out to be 1.6
